Assign GI50 to each entry below.
Tested on: A549 cells
Assay: cells
Conditions: Homo sapiens, A549, 72 h
Text: The aim of this assay is to evaluate the in vitro cytostatic (ability to delay or arrest tumor cell growth) or cytotoxic (ability to kill tumor cells) activity of the samples being tested. A colorimetric assay, using sulforhodamine B (SRB) reaction has been adapted to provide a quantitative measurement of cell growth and viability (following the technique described by Skehan et al. J. Natl. Cancer Inst. 1990, 82, 1107-1112). […]
Give bare numbers, in µM.

# batch size: 3; output GI50 per entry
1. COc1ccc2[nH]c3c(c2c1)C[C@@H](C(=O)O)N[C@]31CS[C@@H]2c3c(OC(C)=O)c(C)c4c(c3[C@H](COC1=O)N1[C@@H]2[C@H]2c3c(cc(C)c(OC)c3O)C[C@@H]([C@@H]1C#N)N2C)OCO4
2. COc1ccc2[nH]c3c(c2c1)C[C@H](C(=O)O)N[C@]31CS[C@@H]2c3c(OC(C)=O)c(C)c4c(c3[C@H](COC1=O)N1[C@@H]2[C@H]2c3c(cc(C)c(OC)c3O)C[C@@H]([C@@H]1C#N)N2C)OCO4
3. COc1ccc2[nH]c3c(c2c1)C[C@@H](CN)N[C@]31CS[C@@H]2c3c(OC(C)=O)c(C)c4c(c3[C@H](COC1=O)N1[C@@H]2[C@H]2c3c(cc(C)c(OC)c3O)C[C@@H]([C@@H]1O)N2C)OCO4

0.489
0.167
0.00602

----------
Assign MTMD to each entry below.
Experiment: MTMD (Maximum Tolerated Multiple Dose) determination, iv weekly x3
Format: in vivo
Details: mice; iv/Q7dx3
# answer = value followed by unit

Recorded MTMD, per entry:
>>> result("COc1c(C)cc2c(c1O)[C@@H]1[C@@H]3[C@@H]4SC[C@]5(N[C@H](C)Cc6c5[nH]c5ccccc65)C(=O)OC[C@@H](c5c6c(c(C)c(OC(C)=O)c54)OCO6)N3[C@@H](O)[C@H](C2)N1C")
"3.0 mg/kg"
>>> result("COc1c(C)cc2c(c1O)[C@@H]1[C@@H]3[C@@H]4SC[C@]5(N[C@@H](CO)Cc6c5[nH]c5ccccc65)C(=O)OC[C@@H](c5c6c(c(C)c(OC(C)=O)c54)OCO6)N3[C@@H](O)[C@H](C2)N1C")
"0.30 mg/kg"
>>> result("COc1ccc2[nH]c3c(c2c1)C[C@H](CO)N[C@]31CS[C@@H]2c3c(OC(C)=O)c(C)c4c(c3[C@H](COC1=O)N1[C@@H]2[C@H]2c3c(cc(C)c(OC)c3O)C[C@@H]([C@@H]1O)N2C)OCO4")
"0.15 mg/kg"
>>> result("COc1ccc2oc3c(c2c1)CCN[C@]31CS[C@@H]2c3c(OC(C)=O)c(C)c4c(c3[C@H](COC1=O)N1[C@@H]2[C@H]2c3c(cc(C)c(OC)c3O)C[C@@H]([C@@H]1O)N2C)OCO4")
"0.25 mg/kg"
>>> result("COc1c(C)cc2c(c1O)[C@@H]1[C@@H]3[C@@H]4SC[C@]5(N[C@H](CO)Cc6c5[nH]c5ccccc65)C(=O)OC[C@@H](c5c6c(c(C)c(OC(C)=O)c54)OCO6)N3[C@@H](O)[C@H](C2)N1C")
"1.25 mg/kg"

We next turn to a different molecule, shown below.
Can you look up the measured MTMD of COc1c(C)cc2c(c1O)[C@@H]1[C@@H]3[C@@H]4SC[C@]5(NCCc6c5[nH]c5ccccc65)C(=O)OC[C@@H](c5c6c(c(C)c(OC(C)=O)c54)OCO6)N3[C@@H](O)[C@H](C2)N1C for me? 0.5 mg/kg
